The values you see were collected from ChEMBL document CHEMBL1153346.

The molecules listed here are annotated with their selectivity ratio.
assay: Selectivity index, ratio of IC50 for rat L6 cells to IC50 for Trypanosoma brucei rhodesiense STIB900 trypomastigotes; assay type: toxicity, cell-based; conditions: read-out: Ratio IC50

{"compound.structure.string": "N=C(N)c1ccc(S(=O)(=O)CCCCCS(=O)(=O)c2ccc(C(=N)N)cc2)cc1", "selectivity ratio": "> 6"}
{"compound.structure.string": "CC(C)NC(=N)c1cccc(OCCCCOc2cccc(C(=N)NC(C)C)c2)c1", "selectivity ratio": "> 276"}
{"compound.structure.string": "CC(C)NC(=N)c1ccc(OCCCCCOc2ccc(C(=N)NC(C)C)c(O)c2)cc1O", "selectivity ratio": "> 11"}
{"compound.structure.string": "c1cc(OCCCCOc2cccc(C3=NCCN3)c2)cc(C2=NCCN2)c1", "selectivity ratio": "> 95"}
{"compound.structure.string": "Cl.N=C(N)c1ccc(NCCCCCNc2ccc(C(=N)N)cc2)cc1", "selectivity ratio": "> 950"}
{"compound.structure.string": "CCOC(=O)c1cc(C(=N)N)ccc1OCCCCCOc1ccc(C(=N)N)cc1C(=O)OCC", "selectivity ratio": "> 13"}
{"compound.structure.string": "CC(C)NC(=N)c1cccc(OCCCCCOc2cccc(C(=N)NC(C)C)c2)c1", "selectivity ratio": "> 421"}
{"compound.structure.string": "N=C(N)c1ccc(OCCCCCOc2ccc(C(=N)N)c(O)c2)cc1O", "selectivity ratio": "> 24"}

----------
assay: Selectivity index, ratio of IC50 for rat L6 cells to IC50 for Leishmania donovani MHOM/SD/62/1S-CL2D axenic amastigotes; assay type: toxicity, cell-based; details: read-out: Ratio IC50

{"compound.structure.string": "N=C(N)c1ccc(OCCCCCOc2ccc(/C(N)=N\\O)cc2)cc1", "selectivity ratio": "< 1"}
{"compound.structure.string": "CC(C)NC(=N)c1cccc(OCCCCOc2cccc(C(=N)NC(C)C)c2)c1", "selectivity ratio": "> 9"}
{"compound.structure.string": "CC(C)NC(=N)c1cccc(OCCCCCOc2cccc(C(=N)NC(C)C)c2)c1", "selectivity ratio": "> 11"}

----------
Recorded selectivity ratio for the following compounds
experiment: Selectivity index, ratio of IC50 for rat L6 cells to IC50 for chloroquine-resistant Plasmodium falciparum K1; assay type: toxicity, cell-based; settings: read-out: Ratio IC50

{"compound.structure.string": "N=C(N)c1ccc(OCCCOc2ccc(C(=O)O)cc2)cc1", "selectivity ratio": "< 60"}
{"compound.structure.string": "CC(C)NC(=N)c1ccc(OCCCCCOc2ccc(C(=N)NC(C)C)c(O)c2)cc1O", "selectivity ratio": "> 269"}
{"compound.structure.string": "Oc1cc(OCCCCCOc2ccc(C3=NCCN3)c(O)c2)ccc1C1=NCCN1", "selectivity ratio": "> 1720"}
{"compound.structure.string": "COc1cc(C2=NCCN2)ccc1OCCCCOc1ccc(C2=NCCN2)cc1OC.Cl.Cl", "selectivity ratio": "> 8200"}

----------
# maps each entry to its pIC50
test system: L6; experiment: Cytotoxicity against rat L6 cells after 70 hrs by alamar blue assay; format: cell-based; details: L6, 70 h
pIC50: −log10 of the molar value.

{"compound.structure.string": "CC(=N)Nc1ccc(OCCCCCOc2ccc(NC(C)=N)cc2)cc1", "pIC50": "< 3.69"}
{"compound.structure.string": "CC(C)NC(=N)c1ccc(OCCCCCOc2ccc(C(=N)NC(C)C)c(O)c2)cc1O", "pIC50": "< 3.81"}
{"compound.structure.string": "COc1cc(C2=NCCN2)ccc1OCCCCOc1ccc(C2=NCCN2)cc1OC.Cl.Cl", "pIC50": "< 3.79"}
{"compound.structure.string": "CC(C)NC(=N)c1cccc(OCCCCOc2cccc(C(=N)NC(C)C)c2)c1", "pIC50": "< 3.77"}
{"compound.structure.string": "O=C(O)c1cc(C2=NCCN2)ccc1OCCCCCOc1ccc(C2=NCCN2)cc1C(=O)O", "pIC50": "< 3.82"}
{"compound.structure.string": "Oc1cc(OCCCCCOc2ccc(C3=NCCN3)c(O)c2)ccc1C1=NCCN1", "pIC50": "< 3.77"}
{"compound.structure.string": "CC(C)NC(=N)c1ccc(OCCCCCOc2ccc(C(=N)NC(C)C)cc2C(=O)O)c(C(=O)O)c1", "pIC50": "< 3.84"}
{"compound.structure.string": "c1cc(OCCCCOc2cccc(C3=NCCN3)c2)cc(C2=NCCN2)c1", "pIC50": "< 3.73"}
{"compound.structure.string": "Cl.Cl.N=C(N)c1ccc(OCCCCCCOc2ccc(C(=N)N)cc2)cc1", "pIC50": 4.98}
{"compound.structure.string": "Cl.Cl.Cl.Cl.N=C(N)c1ccc(OCCCCOc2ccc(C(=N)N)cc2Cl)c(Cl)c1", "pIC50": 4.96}
{"compound.structure.string": "CC(C)NC(=N)c1ccc(OCCCCCOc2ccc(C(=N)NC(C)C)cc2)cc1.Cl.Cl", "pIC50": 3.82}
{"compound.structure.string": "Cl.Cl.Cl.Cl.N=C(N)c1ccc(OCCCCCOc2ccc(C(=N)N)cc2Cl)c(Cl)c1", "pIC50": 4.95}
{"compound.structure.string": "Cl.Cl.N=C(N)c1ccc(OCCCOc2ccc(C(=N)N)cc2N)c(N)c1", "pIC50": 4.16}
